- TEST_DESCRIPTION: glucagon-like peptide 1 release enhancers, primary assay, NCI-H716 cell line, NPC library (AID 1117341)
- SETUP_CONDITIONS: NCI-H716 cells, at 10 µM, stronger effect = higher value
Consider the following molecules; for each one, report its GLP1 secretion stimulation.
Answers are plain numbers, in %.

# count of solved cases: 4
ClCCCN1CCN(c2cccc(Cl)c2)CC1    1.5
N[C@@H](Cc1ccc(Oc2cc(I)c(O)c(I)c2)c(I)c1)C(=O)O    -3.9
C[C@]12CCC(=O)C=C1C=C[C@@H]1[C@H]2CC[C@@]2(C)[C@@H]1CC[C@@]2(O)CCC(=O)O    0.9
[N-]=[N+]=CC(=O)OC[C@H](N)C(=O)O    -1.4

Here are 7 molecules. What values of GLP1 secretion stimulation were reported for them?
1. OC(c1ccccc1)(c1ccccc1)C1CCNCC1
2. CCC(C)(C)c1ccc(O)cc1
3. NC(=O)c1cc([N+](=O)[O-])cc([N+](=O)[O-])c1
4. Cc1cccc(C)c1NC1=NCCCS1
5. CCC(COC(=O)c1cc(OC)c(OC)c(OC)c1)(c1ccccc1)N(C)C (configuration not stated)
6. CC[N+]1(CCOC(=O)C(O)(c2ccccc2)c2ccccc2)CCCCC1
7. COC(=O)C1=CCCN(C)C1

Completion:
1. 0.1
2. 6.1
3. -0.8
4. 1.7
5. 5.8
6. 0.5
7. -0.8

Recorded GLP1 secretion stimulation (molecule CNC(C)[C@@H](O)c1ccc(O)cc1 (some centres not stated) ): -5

###

- TEST_DESCRIPTION: reducers of polyQ inclusions in PC12 cells, cell-based, NGF-treated PC12, GFPQ80 (AID 1614);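 further: lower means fewer inclusions and 0 means no inclusions at all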
- SETUP_CONDITIONS: PC12 NGF-treated GFP-polyQ80 inclusion reduction
ENDPOINT: inclusion score
Answers are plain numbers.

# count of solved cases: 5
CO[C@H]1[C@H](O)[C@@H](O[C@H]2CC[C@]3(C=O)C4CC[C@]5(C)[C@@H](C6=CC(=O)OC6)CC[C@]5(O)C4CC[C@@H]3C2)O[C@@H](C)[C@@H]1O (stereo partly specified)    0.5
C[N+](C)(C)CC#CCN1CCCC1=O    2
CCCC(C)C1(CC)C(=O)N=C(S)NC1=O (stereo unspecified)    2
Cc1cccc(C)c1NC1=NCCCS1    2
NCCc1c[nH]c2ccccc12    2

Here are 6 compounds. What values of inclusion score were reported for them?
1. Oc1ccc2c3c1OC1[C@@H](O)CC[C@@]4(O)[C@@H](C2)N(CC2CCC2)CC[C@]314 (stereo partly specified)
2. CC(N)C(O)c1ccccc1 (stereo unspecified)
3. CNC1(c2ccccc2Cl)CCCCC1=O (stereo unspecified)
4. NCC(O)c1ccc(O)cc1 (stereo unspecified)
5. CN(C)[C@@H]1C(=O)C(C(N)=O)=C(O)[C@@]2(O)C(=O)C3=C(O)c4c(O)cccc4[C@@](C)(O)[C@H]3C[C@@H]12
6. CN1C2CC(OC(=O)[C@H](CO)c3ccccc3)C[C@H]1CC2O (stereo partly specified)

Completion:
[2, 2, 2, 2, 0, 2]

###

- TEST_DESCRIPTION: antimalarial activity against Dd2 strain (AID 2302);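 further: 0% = DMSO untreated growth and 100% = chloroquine plus artemisinin killed control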
- SETUP_CONDITIONS: P. falciparum Dd2 in RBCs, LDH growth readout, 72 h; at 2 µM; stronger effect = higher value
Threshold check on growth inhibition: at or above 90% gives yes, strictly below gives no.

The following compounds have reported results that may help.
CC(=O)C1(c2ccccc2)CCN(CCC2(c3ccc(Cl)c(Cl)c3)CN(C(=O)C3CCCC3)CCO2)CC1 (centres undefined)    no
Cc1[nH]c2ccc(O)cc2c1C1CCN(CC2CCC(NC(=O)/C=C/c3ccc(Cl)c(Cl)c3)CC2)CC1 (centres undefined)    yes
CC(C)CCNC(=O)c1cc(C(=O)c2cc(F)ccc2O)cn(CCC(C)C)c1=O    no

Prompt: Please tell me: is the compound CC(C)N(C)C(=O)n1cnc(S(=O)(=O)C2C[C@@H]3CC[C@H]2C3)n1 (some centres undefined) at or over 90% in terms of growth inhibition?
Completion: yes

Prompt: Please tell me: is the compound COc1ccccc1CNCC(O)c1cc(C(F)(F)F)ccc1C(F)(F)F (centres undefined) at or over 90% in terms of growth inhibition?
Completion: yes

Prompt: Please tell me: is the compound CN1CC[C@H](N(Cc2ccccc2F)c2ccc(C#N)c(Cl)c2)C1 at or over 90% in terms of growth inhibition?
Completion: no

Prompt: Please tell me: is the compound CCCCCCCc1cc(O)c2c3c(c(=O)oc2c1)CN(C)CC3 at or over 90% in terms of growth inhibition?
Completion: yes

Prompt: Please tell me: is the compound CC(Cc1ccc(S(=O)(=O)N(C(C)C)C(C)C)cc1)NCC(O)c1cccc(C(F)(F)F)c1 (centres undefined) at or over 90% in terms of growth inhibition?
Completion: yes

Prompt: Please tell me: is the compound O=C(NC1CCC(CN2CCC(c3c[nH]c4ccccc34)CC2)CC1)c1csc(-c2cccc(Cl)c2Cl)n1 (centres undefined) at or over 90% in terms of growth inhibition?
Completion: no

###

- TEST_DESCRIPTION: growth inhibition of DIPG glioma cells, dose response, cell-based, SU-DIPG-XVII, MIPE5.0, CellTiter-Glo, qHTS (AID 1347060);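 on AC50: cells exposed to compound for 48 hours before viability readout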
- SETUP_CONDITIONS: SU-DIPG-XVII viability, CellTiter-Glo ATP luminescence
Inconclusive results are not listed. The source made the active and inactive calls. No cut-off is given here; in the data, nearly all actives have AC50 up to about 26 µM.
Would you mind answering with one of these outcomes? 1 (yes) for active, 0 (no) for inactive

NN=C(N)N    0 (no)
CN(C)c1cc2c(cc1Sc1nc3c(N)nccc3n1CCNCC(C)(C)C)OCO2    1 (yes)
Fc1ccc(C(OCCN2CCN(CCCc3ccccc3)CC2)c2ccc(F)cc2)cc1    1 (yes)
Cc1ncc(OC[C@@]2(c3cccc(F)c3)C[C@H]2C(=O)Nc2ccc(F)cn2)c(C)n1    0 (no)
C#CCN(C)[C@H](C)Cc1ccccc1    0 (no)

Prompt: In this assay, the call recorded for CC(NC(C)(C)C)C(=O)c1cccc(Cl)c1 (stereo unspecified) was what?
Completion: 0 (no)

Prompt: In this assay, the call recorded for CCCC[N+]1(C)[C@@H]2CC(OC(=O)[C@H](CO)c3ccccc3)C[C@H]1[C@@H]1O[C@@H]12 (stereo partly specified) was what?
Completion: 0 (no)

Prompt: In this assay, the call recorded for C/C(=C\c1csc(C)n1)[C@@H]1C[C@@H]2O[C@]2(C)CCC[C@H](C)[C@H](O)[C@@H](C)C(=O)C(C)(C)[C@@H](O)CC(=O)O1 was what?
Completion: 1 (yes)

Prompt: In this assay, the call recorded for Cn1c(CCCC(=O)O)nc2cc(N(CCCl)CCCl)ccc21 was what?
Completion: 1 (yes)

Prompt: In this assay, the call recorded for O=C(O)C(=O)c1cn(Cc2ccccc2)c2ccc(-c3ccc(OC(F)(F)F)cc3)cc12 was what?
Completion: 0 (no)

Prompt: In this assay, the call recorded for CN(C)NC(=O)CCC(=O)O was what?
Completion: 0 (no)

###

- TEST_DESCRIPTION: HepG2 cytotoxicity, primary screen, cytotoxicity control for P. falciparum antimalarial project, cell-based, ATP luminescence (AID 2303);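 further: 0% = DMSO wells and 100% = digitonin-killed cells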
- SETUP_CONDITIONS: HepG2 viability, 24-48 h, at 10 µM
Calls of active or inactive are those of the source.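 The calls were made as follows: active = inhibition above 50%; inactive = the rest.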
Would you mind answering with one of these outcomes? Y = active, N = inactive

The following compounds have reported results that may help.
CNC(=O)c1ccc2[nH]cc(C3CCN(CC4CCC(NC(=O)/C=C/c5ccccc5Cl)CC4)CC3)c2c1 (stereo not drawn)    N
CC(C)CNCc1ccc(-c2cccc(CN(C(=O)CCC3CCCC3)C3CCN(Cc4ccccc4)CC3)c2)cc1    Y
CC(=O)N(Cc1cccc(-c2ccc(CNCCc3ccccc3)cc2)c1)C1CCN(Cc2ccccc2)CC1    N
CC(=O)N(Cc1ccc(-c2ccc(CNCCc3ccccc3)cc2)cc1)C1CCN(Cc2ccccc2)CC1    N
CCOC(C(=O)OCC1CCCN(C)C1)(c1ccccc1)c1ccccc1 (stereo not drawn)    N
O=C1Nc2cccc3c2C1(CCCCN1CC=C(c2c[nH]c4ncccc24)CC1)CCC3 (stereo not drawn)    N
CC(C)CNCc1cccc(-c2cccc(CN(C(=O)c3cccs3)C3CCN(Cc4ccccc4)CC3)c2)c1    N
CN(C)c1cccc(CN2CC=C(c3c[nH]c4ccc(Cl)cc34)CC2)c1    N
CC1(C)CCCN(C(=O)Cc2ccc3c(c2)CCCC3)C1CN1CC=CC1 (stereo not drawn)    N
CC[C@H]1CN2CC[C@@H]1C[C@H]2[C@H](O)c1cc(N2CCC(O)CC2)nc2ccc(OC)cc12    N

Consider the additional compound presented here.
Prompt: In this assay, the call recorded for CC[C@H]1CN2CC[C@H]1C[C@H]2[C@@H](O)c1cc(OCCCN(C)C)nc2ccc(OC)cc12 was what?
Completion: N
